assay: Soluble peptide degradation, Media condition (cell-conditioned media, LC-MS); assay type: in vitro ADME, human; conditions: human; Figure 2B heatmap; pooled TAILS-derived soluble peptides in 24 h hUVEC-conditioned media without cells; 24 h; LC-MS, ratio to βFβA6 internal standard, 24 h / 0 h; N = 5; read-out: Fraction of peptide remaining at 24 hours: hUVEC Media
Where a SMILES comes first, the peptide text is derived from it. [ ]: non-standard residue; d: D form. βAla = NCCC(=O)O
OUTCOME MEASURE: remaining at 24 h

| MOLECULE | RESULT |
| --- | --- |
| CC(=O)NCCC(=O)N1CCC[C@H]1C(=O)N1CCC[C@H]1C(=O)N[C@@H](CO)C(=O)N[C@@H](CCCNC(=N)N)C(=O)N[C@@H](Cc1c[nH]cn1)C(=O)N[C@@H](CC(=O)O)C(=O)N[C@H](C(=O)NCC(=O)N[C@H](C(=O)N1CCC[C@H]1C(=O)NCCC(N)=O)[C@@H](C)O)[C@@H](C)O [PPSRHDTGTP] (Ac-[βAla]PPSRHDTGTP[βAla]-NH2) | 104% |

Alright, here's another molecule for you.
Problem: Which measured remaining at 24 h value corresponds to CC[C@H](C)[C@H](NC(=O)[C@@H](NC(=O)[C@H](CCSC)NC(=O)[C@@H]1CCCN1C(=O)[C@H](CCCCN)NC(=O)[C@H](CCCCN)NC(=O)CCNC(C)=O)[C@@H](C)O)C(=O)N[C@@H](C)C(=O)N[C@@H](CCCNC(=N)N)C(=O)N[C@@H](CC(C)C)C(=O)N[C@@H](CC(N)=O)C(=O)N[C@@H](C)C(=O)N[C@@H](CCCCN)C(=O)N[C@@H](CCCCN)C(=O)NCCC(N)=O [KKPMTIARLNAKK] (Ac-[βAla]KKPMTIARLNAKK[βAla]-NH2) ?
Result: 74%
